Data provenance: patent US12180192B2

# ASSAY TARGET: human thyroid receptor beta ligand-binding domain (LBD) (Homo sapiens, UniProt P10828)
# Sequence (P10828 217-461 limits assumed): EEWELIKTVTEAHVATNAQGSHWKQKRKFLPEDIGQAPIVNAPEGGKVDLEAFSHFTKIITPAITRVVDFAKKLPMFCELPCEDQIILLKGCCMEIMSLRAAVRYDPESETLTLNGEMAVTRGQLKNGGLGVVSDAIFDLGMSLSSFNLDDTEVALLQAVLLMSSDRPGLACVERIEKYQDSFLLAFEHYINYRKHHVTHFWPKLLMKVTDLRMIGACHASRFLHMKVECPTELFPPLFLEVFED
# EXPERIMENT: TR-FRET thyroid receptor beta coactivator assay (THR biochemical assay, Assay 1)
# EXPERIMENTAL CONDITIONS: THR-beta, TR-FRET coactivator assay; read-out: Activity category Assay 1 (EC50, THR-beta agonist)
Catalogue of compounds with associated EC50

Example compounds with recorded EC50:
COMPOUND	EC50
Nc1nn(-c2cc(Cl)c(Oc3cc(C4CC5(CC5)C4)c(=O)[nH]n3)c(Cl)c2)c(=O)[nH]c1=O	50 to 250 nM
N#C[C@@H]1CC[C@H]1c1cc(Oc2c(Cl)cc(-n3nc(N)c(=O)[nH]c3=O)cc2Cl)n[nH]c1=O (relative stereo)	1000 to 25000 nM
Cc1cc(-n2nc(C#N)c(=O)[nH]c2=O)cc(C)c1Cc1ccc2[nH]c(=O)cc(C(C)C)c2c1	< 50 nM
Nc1nn(-c2cc(Cl)c(Oc3cc(C4Cc5ccccc54)c(=O)[nH]n3)c(Cl)c2)c(=O)[nH]c1=O (single isomer, unassigned) [Compound 165]	< 50 nM
Nc1nn(-c2cc(Cl)c(Oc3n[nH]c(=O)cc3-c3cccc(Cl)c3)c(Cl)c2)c(=O)[nH]c1=O	> 25000 nM
Nc1nn(-c2cc(Cl)c(Oc3cc(-c4ccc5c(c4)CCCC5)c(=O)[nH]n3)c(Cl)c2)c(=O)[nH]c1=O	50 to 250 nM
O=c1cnn(-c2cc(Cl)c(Oc3cc(-c4ccc5c(c4)CCCC5)c(=O)[nH]n3)c(Cl)c2)c(=O)[nH]1	< 50 nM
CC(C)c1cc(Oc2c(Cl)cc(-n3nc(CS(C)(=O)=O)c(=O)[nH]c3=O)cc2Cl)n[nH]c1=O	1000 to 25000 nM

Problem: Request body: readout EC50, system human thyroid receptor beta ligand-binding domain (LBD) (Homo sapiens, UniProt P10828), query CC1(C)CC(c2cc(Oc3c(Cl)cc(-n4nc(N)c(=O)[nH]c4=O)cc3Cl)n[nH]c2=O)CCO1 (centres unmarked) . Return the value.
Result: 1000 to 25000 nM

Problem: Next compound: CCc1cccc(-c2cc(Oc3c(Cl)cc(-n4nc(N)c(=O)[nH]c4=O)cc3Cl)n[nH]c2=O)c1
Result: < 50 nM

Problem: Next compound: Nc1nn(-c2cc(Cl)c(Oc3cc(-c4ccc5ccnn5c4)c(=O)[nH]n3)c(Cl)c2)c(=O)[nH]c1=O
Result: 1000 to 25000 nM

Problem: Next compound: Nc1nn(-c2cc(Cl)c(Oc3n[nH]c(=O)cc3-c3cc4ccccn4n3)c(Cl)c2)c(=O)[nH]c1=O
Result: 1000 to 25000 nM

Problem: Next compound: CC1(C)C(=O)Nc2ccc(Oc3c(Cl)cc(-n4nc(N)c(=O)[nH]c4=O)cc3Cl)cc21
Result: < 50 nM

Problem: Next compound: CC(C)NC(=O)c1c[nH]c2ccc(Oc3c(Cl)cc(-n4nc(C#N)c(=O)[nH]c4=O)cc3Cl)cc12
Result: > 25000 nM
